measured-endpoint: melting point

Reference set (3 entries):
molecule	melting point
OCCN1c2ccccc2Oc2ccccc21	113 to 115 °C
BrCCCOc1ccc(-c2ccccc2)cc1	60 to 63 °C
FC(F)(F)c1cc(C#CCBr)cc(C(F)(F)F)c1	30 to 31 °C

Request the reported melting point associated with `CC(C)(N)c1ccc(-c2nc(Nc3cc(F)c(F)c(F)c3)ncc2C#N)cc1`
220 °C

Request the reported melting point associated with `O=C(Nc1cccnn1)N1CCN(c2ccnc(-c3cccc(F)c3F)n2)CC1`
235 to 236 °C

Request the reported melting point associated with `CC(C)c1ccccc1Sc1c(O)cc(-c2cc(Cl)cc(Cl)c2)oc1=O`
168 to 169 °C

Request the reported melting point associated with O=C1c2c(O)ccc(O)c2C(=O)c2c(NCCN3CCC(O)C3)ccc(NCCN3CCC(O)C3)c21 (stereo not given)
197 to 199 °C

Request the reported melting point associated with CC(O)c1nccc2c1CCCC2 (stereo not given)
60 to 61 °C

Request the reported melting point associated with `CCOC(=O)c1nnc(-c2ccccc2)cc1-c1cccc([N+](=O)[O-])c1`
121 to 122 °C

Request the reported melting point associated with `Clc1cccc(Oc2ccc(OCc3cc(C4CC4)no3)cc2)n1`
128 to 130 °C

Request the reported melting point associated with `CCCn1cc(Cc2ccc(C(=O)NS(=O)(=O)c3ccccc3C)cc2OC)c2cc(CCNC(=O)N3CCOCC3)ccc21`
117 to 123 °C

* * *

The entries below come with measured melting point values attached.

Reference set (4 entries):
compound	melting point
CCCCCCCCCCCCCCCCCCOC(=O)Cc1cc(C(C)(C)C)c(O)c(C)c1C	79 to 81 °C
CC(C)(C)C(O)Cn1c(-c2ccccc2[N+](=O)[O-])nc2ccccc21 (stereo unspecified)	192 to 193 °C
CCc1nnc(NC(=O)C2c3ccccc3Oc3ccccc32)o1	256 to 257 °C
COC(=O)c1ccc(OC)c(Nc2ccccc2)c1	79 to 81 °C

Now turn to the next compound.
Request the reported melting point associated with `CCN(CC)c1nsc(N)c1C#N`
87 to 88 °C

* * *

measured-endpoint: melting point

molecular-string	melting point
N#CC(C(=O)c1ccc(NS(=O)(=O)C(F)(F)F)cc1)=C1CCCCN1	197 °C
CC(=O)c1nnn(C[C@@H]2C[C@@H](S)CN2S(=O)(=O)c2ccc3ccccc3c2)c1C	145 °C
Cc1nnnn1-c1ccccc1S(N)(=O)=O	141 to 148 °C

Request the reported melting point associated with `CNC(=O)C1=CC(C)(C)Oc2ccc([N+](=O)[O-])cc21`
166 to 168 °C

* * *

measured-endpoint: melting point

molecule	result
C1=C(COc2ccccc2)CCN(Cc2c[nH]c3ncccc23)C1	161 to 163 °C

Request the reported melting point associated with CN(C)c1ccc(C2OC(=O)c3cc(N(C)C)ccc32)c(Cl)c1 (centres undefined)
159 to 160 °C

Request the reported melting point associated with `O=C(O)CN1C(=O)C(=Cc2cc(OCc3ccccc3)c(OCc3ccccc3)c(OCc3ccccc3)c2)SC1=S`
213 to 216 °C

Request the reported melting point associated with COc1ccc(C(=O)CC(Cc2ccccc2)C(=O)O)cc1 (single isomer, unassigned; (+))
93 °C

* * *

measured-endpoint: melting point

Reference set (3 entries):
molecule	melting point
CC1=Cc2ccc(Cl)cc2C(c2ccc([N+](=O)[O-])c(C)c2)=NN1C(=O)NC1CC1	221 to 223 °C
CC1(CF)C(=O)N(c2ccc(C#N)c(C(F)(F)F)c2)C(=O)N1CC#N (stereo unspecified)	175 °C
C=CCc1cc(OC)c(OC)cc1CC(C#N)=COC	77 to 79 °C

Request the reported melting point associated with `CC(C)Cn1c(CN)c(-c2ccccc2)c2cc(SCC(N)=O)ccc2c1=O`
218 to 220 °C

Request the reported melting point associated with CCCN1N=C2C(=Cc3cccc(C(F)(F)F)c3)CSCC2C1c1cccc(C(F)(F)F)c1 (stereo unspecified)
90 to 93.5 °C

Request the reported melting point associated with `O=C1Cc2cc(F)ccc2Sc2ccccc21`
98 to 100 °C

Request the reported melting point associated with `O=C(CCl)NN1CCOC(c2ccccc2)(c2ccccc2)CC1`
150 to 152 °C

Request the reported melting point associated with `CNC1=NN(C(=O)c2ccccc2F)C(C)(C)S1`
136 to 140 °C

Request the reported melting point associated with CC(CSC(=S)c1ccc(F)cc1)C(=O)N1CCCC1C(=O)O (stereo unspecified)
114 to 115 °C

Request the reported melting point associated with `COc1cc(O)c(C(=O)C=Cc2ccc3c(c2)OCO3)c(OC)c1`
162 °C
